EXPERIMENTAL_SYSTEM: Choline Kinase alpha enzyme (Homo sapiens, UniProt P35790)
Sequence (P35790 whole entry): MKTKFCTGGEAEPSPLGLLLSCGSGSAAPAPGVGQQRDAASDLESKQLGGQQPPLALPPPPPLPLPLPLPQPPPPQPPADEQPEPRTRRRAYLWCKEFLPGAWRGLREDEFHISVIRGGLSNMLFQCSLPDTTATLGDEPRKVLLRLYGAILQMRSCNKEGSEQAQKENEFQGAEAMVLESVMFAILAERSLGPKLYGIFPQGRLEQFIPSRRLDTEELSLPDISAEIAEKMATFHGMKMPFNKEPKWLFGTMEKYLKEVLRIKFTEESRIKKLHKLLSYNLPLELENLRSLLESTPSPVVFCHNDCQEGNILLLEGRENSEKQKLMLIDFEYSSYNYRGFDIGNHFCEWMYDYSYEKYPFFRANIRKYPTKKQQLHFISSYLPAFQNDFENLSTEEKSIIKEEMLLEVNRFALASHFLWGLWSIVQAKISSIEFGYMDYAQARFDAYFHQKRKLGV
Entries and their measured IC50 follow.

Use the examples below as a reference point.
Lab note: need IC50 for OC(Cc1ccccc1)(c1ccccc1)C1CN2CCC1CC2 (stereo not shown) on Choline Kinase alpha enzyme (Homo sapiens, UniProt P35790), anyone have it? 0.1 to 1 µM

Lab note: need IC50 for OC(Cc1ccccc1)(Cc1ccccc1)C1CN2CCC1CC2 (stereo not shown) on Choline Kinase alpha enzyme (Homo sapiens, UniProt P35790), anyone have it? 1 to 75 µM

Lab note: need IC50 for OC(c1ccccc1)(c1ccccc1)C1CN2CCC1CC2 (stereo not shown) on Choline Kinase alpha enzyme (Homo sapiens, UniProt P35790), anyone have it? 0.1 to 1 µM

Lab note: need IC50 for Cc1ccccc1C(O)(Cc1ccccc1)C1CN2CCC1CC2 (single isomer, unassigned) [Compound I-78] on Choline Kinase alpha enzyme (Homo sapiens, UniProt P35790), anyone have it? < 0.1 µM

Lab note: need IC50 for OC(c1ccccc1)(c1ccc(Cl)cc1)C1C[N@]2CC[C@@H]1CC2 (stereo partly shown) on Choline Kinase alpha enzyme (Homo sapiens, UniProt P35790), anyone have it? 0.1 to 1 µM

Lab note: need IC50 for CN(C)c1ccc(CCC(O)(c2ccc(N(C)C)cc2)C2CN3CCC2CC3)cc1 (stereo not shown) on Choline Kinase alpha enzyme (Homo sapiens, UniProt P35790), anyone have it? 1 to 75 µM

Lab note: need IC50 for OC(c1ccccc1)(c1ccccc1Cl)C1C[N@]2CC[C@@H]1CC2 (stereo partly shown) on Choline Kinase alpha enzyme (Homo sapiens, UniProt P35790), anyone have it? 0.1 to 1 µM

Lab note: need IC50 for OC(c1ccc(Cl)s1)(c1ccc(Cl)s1)C1CN2CCC1CC2 (stereo not shown) on Choline Kinase alpha enzyme (Homo sapiens, UniProt P35790), anyone have it? 0.1 to 1 µM

Lab note: need IC50 for OC(c1cccc(Cl)c1)(c1cccc(Cl)c1)C1CN2CCC1CC2 (stereo not shown) on Choline Kinase alpha enzyme (Homo sapiens, UniProt P35790), anyone have it? 1 to 75 µM

From here, focus on the item given below.
Lab note: need IC50 for Cc1ccccc1C(O)(Cc1ccccc1)C1CN2CCC1CC2 (single isomer, unassigned) [Compound I-84] on Choline Kinase alpha enzyme (Homo sapiens, UniProt P35790), anyone have it? 1 to 75 µM
